Test system: West Nile virus
Assay: microbe, parasite or virus in culture
Type: cell-based
READOUT_TYPE: EC50

Report EC50, nothing else, for this molecule: `C#C[C@@]1(O)[C@H](O)[C@@H](CO)O[C@H]1n1ccc2c(N)ncnc21`
~3.75 µM
